- Assayed System: T1, human complement component C5 (human, UniProt P01031 19-673; P01031 678-1676)
- T1 construct: mature; Mature C5 is a disulphide-linked beta and alpha chain cut from one precursor; Terbium-labelled in the FRET assays, biotinylated in part of the phage ELISA; also called human C5; C5-Tb
- T1 sequence (P01031 19-673 limits assumed, chain 1 of 2): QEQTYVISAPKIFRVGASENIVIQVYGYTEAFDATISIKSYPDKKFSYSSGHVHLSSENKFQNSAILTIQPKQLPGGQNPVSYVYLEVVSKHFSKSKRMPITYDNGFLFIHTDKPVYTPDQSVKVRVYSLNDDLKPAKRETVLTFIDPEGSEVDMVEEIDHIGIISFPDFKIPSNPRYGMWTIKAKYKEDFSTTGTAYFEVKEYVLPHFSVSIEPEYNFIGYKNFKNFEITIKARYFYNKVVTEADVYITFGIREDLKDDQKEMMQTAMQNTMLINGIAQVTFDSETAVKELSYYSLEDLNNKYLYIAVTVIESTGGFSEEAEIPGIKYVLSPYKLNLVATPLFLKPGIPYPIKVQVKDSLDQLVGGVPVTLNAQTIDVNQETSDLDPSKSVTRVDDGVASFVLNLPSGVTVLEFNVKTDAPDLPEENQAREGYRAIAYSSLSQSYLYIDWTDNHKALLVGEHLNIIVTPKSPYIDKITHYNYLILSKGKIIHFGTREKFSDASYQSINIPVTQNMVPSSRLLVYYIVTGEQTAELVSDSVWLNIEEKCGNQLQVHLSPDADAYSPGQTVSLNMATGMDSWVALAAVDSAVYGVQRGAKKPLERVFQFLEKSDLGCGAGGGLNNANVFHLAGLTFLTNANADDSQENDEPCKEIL
- T1 sequence (P01031 678-1676 limits assumed, chain 2 of 2): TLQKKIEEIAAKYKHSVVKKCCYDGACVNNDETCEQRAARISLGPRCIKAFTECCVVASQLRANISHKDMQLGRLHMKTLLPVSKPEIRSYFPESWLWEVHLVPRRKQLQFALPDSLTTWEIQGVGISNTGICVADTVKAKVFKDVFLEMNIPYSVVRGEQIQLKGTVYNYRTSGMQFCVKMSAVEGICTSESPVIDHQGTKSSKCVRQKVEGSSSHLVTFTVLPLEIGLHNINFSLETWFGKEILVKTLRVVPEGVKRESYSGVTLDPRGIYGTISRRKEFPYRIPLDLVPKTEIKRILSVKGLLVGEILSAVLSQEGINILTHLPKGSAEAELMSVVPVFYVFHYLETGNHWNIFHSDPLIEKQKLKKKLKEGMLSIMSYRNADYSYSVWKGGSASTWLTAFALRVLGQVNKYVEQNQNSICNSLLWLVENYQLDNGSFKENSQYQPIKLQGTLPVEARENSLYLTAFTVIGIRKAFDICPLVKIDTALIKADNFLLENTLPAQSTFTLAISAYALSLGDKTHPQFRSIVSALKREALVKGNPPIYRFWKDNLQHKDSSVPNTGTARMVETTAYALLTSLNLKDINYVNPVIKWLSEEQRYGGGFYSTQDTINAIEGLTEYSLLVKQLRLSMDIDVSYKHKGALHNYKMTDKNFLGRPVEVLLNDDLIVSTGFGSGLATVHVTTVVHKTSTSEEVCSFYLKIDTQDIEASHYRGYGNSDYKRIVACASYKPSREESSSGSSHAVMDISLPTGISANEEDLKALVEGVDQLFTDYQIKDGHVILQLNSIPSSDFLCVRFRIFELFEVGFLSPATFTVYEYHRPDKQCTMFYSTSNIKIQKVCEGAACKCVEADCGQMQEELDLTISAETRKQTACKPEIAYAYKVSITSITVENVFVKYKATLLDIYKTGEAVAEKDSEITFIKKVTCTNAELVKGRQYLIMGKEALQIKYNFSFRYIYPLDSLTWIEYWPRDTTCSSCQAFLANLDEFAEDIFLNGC
- Assay Remarks: SPR single-cycle kinetics
Measure Name: Kd

Solved entries:
>  <Binder>
K92 knob domain peptide cleaved from the 645 Fab (Recombinant, cut out by TEV protease) peptide: GSGSVTCPEGWSECGVAIYGYECGRWGCGHFLNSGPNISPYVTTGSENLYFQ

>  <Kd>
< 40 nM

$$$$
>  <Binder>
GSSGCPPGYKSGVDCSPGSECKWGCYAVDGRRYGGYGADSGVENLYFQ (Recombinant, cut out by TEV protease) [K57 knob domain peptide cleaved from the 645 Fab]

>  <Kd>
< 40 nM

$$$$

Please give measured Kd of the following entry: K8 knob domain peptide cleaved from the 645 Fab (Recombinant, cut out by TEV protease) peptide: GSVCPDGFNWGYGCAAGSSRFCTRHDWCCYDERADSHTYGFCTGNRVENLYFQ
< 40 nM
